The values you see were collected from patent US20260209325A1.

- ASSAY_TARGET: T1, human pro-myostatin (human, UniProt O14793 24-375, biotinylated (in the SPR assay))
- T1 construct: Disulfide-linked homodimer; also called proGDF8 (human)
- PROTOCOL: SPR Biacore 8K, biotin-antigen captured
QUANTITY_KIND: kon (M⁻¹ s⁻¹)
Express the result in M⁻¹ s⁻¹ but write the number alone.

binder="Ab123 (antibody, human IgG4 S228P, kappa, V domains shown) VH: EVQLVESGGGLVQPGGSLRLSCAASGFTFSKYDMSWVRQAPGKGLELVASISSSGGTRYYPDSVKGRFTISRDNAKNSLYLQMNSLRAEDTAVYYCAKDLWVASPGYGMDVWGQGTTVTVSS VL: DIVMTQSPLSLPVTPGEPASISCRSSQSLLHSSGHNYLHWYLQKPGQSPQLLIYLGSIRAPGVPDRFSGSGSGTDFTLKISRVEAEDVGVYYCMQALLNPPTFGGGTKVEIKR" unit_spec="M⁻¹ s⁻¹" readout_value=1.38e+06
binder="Ab109 (antibody, human IgG4 S228P, kappa, V domains shown, human IgG4 in the EM experiment; also called Ab109 Human IgG4) VH: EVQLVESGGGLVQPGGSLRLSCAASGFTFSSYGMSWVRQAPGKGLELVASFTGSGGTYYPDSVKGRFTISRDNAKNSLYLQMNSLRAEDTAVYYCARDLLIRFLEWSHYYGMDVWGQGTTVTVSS VL: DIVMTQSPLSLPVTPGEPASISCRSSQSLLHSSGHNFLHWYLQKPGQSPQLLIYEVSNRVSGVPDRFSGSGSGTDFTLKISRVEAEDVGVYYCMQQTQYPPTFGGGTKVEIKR" unit_spec="M⁻¹ s⁻¹" readout_value=6.62e+06
binder="Ab103 (antibody, human IgG4 S228P, kappa, V domains shown) VH: EVQLVESGGGLVQPGGSLRLSCAASGYTFSSYGMSWVRQAPGKGLELVASITGDAGRTYYPDSVKGRFTISRDNAKNSLYLQMNSLRAEDTAVYYCARDTLVRFLEWSHYYGMDVWGQGTTVTVSS VL: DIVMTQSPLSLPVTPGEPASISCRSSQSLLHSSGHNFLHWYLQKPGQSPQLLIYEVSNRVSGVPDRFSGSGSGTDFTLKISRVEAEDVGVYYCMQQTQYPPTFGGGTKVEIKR" unit_spec="M⁻¹ s⁻¹" readout_value=5.78e+06

Ask: Quick one: kon for Ab114 (antibody, human IgG4 S228P, kappa, V domains shown) VH: QVQLVQSGAEVKKPGASVKVSCKVSGGTFRSYTIHWVRQAPGKGLEWMGGMNPSSGHTIYAQKFQGRVTMTEDTSTDTAYMELSSLKSEDTAVYYCARGLDYGEGYYYYGMDVWGQGTTVTVSS VL: DIQMTQSPSSVSASVGDRVTITCRASQGISESLAWYQQKPGKAPKLLIYSASSLESGVPSRFSGSGSGTDFTLTISSLQPEDFANYYCQQGYSSPPYTFGGGTKVEIKR ?
Reply: 4.23e+06
